B1: VH:VL chains; a variant is named by its letters at X, in order (parent)
chain 1: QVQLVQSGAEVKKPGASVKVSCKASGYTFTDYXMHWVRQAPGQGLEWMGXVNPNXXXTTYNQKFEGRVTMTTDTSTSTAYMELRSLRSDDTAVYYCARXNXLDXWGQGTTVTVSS
chain 2: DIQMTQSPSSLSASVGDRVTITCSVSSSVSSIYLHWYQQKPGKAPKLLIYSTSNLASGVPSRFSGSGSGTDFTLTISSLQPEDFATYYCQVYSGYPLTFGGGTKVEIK

# Variants of: B1
# PROCEDURE DETAILS: yeast display scFab, FACS + sequencing
# TEST CONTEXT: with MET
The other results are listed elsewhere or left out. The true hit rate is not given.
PROPERTY MEASURED: antigen binding call

FKGEGSLV    no binding
YRAGASAD    binds
FKARGALV    binds
VKERGDAV    no binding
DKEGGSAD    no binding

Please go through the list and note antigen binding call for each variant.
1. VKGKGDVY
2. FRTRSSGV
3. YREKDSAD
4. YEGGTDVV
5. YRGKDSVD

no binding
binds
binds
no binding
binds

Please go through the list and note antigen binding call for each variant.
1. VETRSSSV
2. YKARGAVY
3. YRRRGYVV
4. YKTRSSAD
5. FAGRDAVV

1: no binding; 2: binds; 3: binds; 4: binds; 5: no binding

Please go through the list and note antigen binding call for each variant.
1. VKGRGSAA
2. YKARGAGV
3. VERKGYLA

1: binds; 2: binds; 3: no binding

Please go through the list and note antigen binding call for each variant.
1. STEGDAGA
2. YRRRGDVV
3. DATGGSSY
4. FKGEGDGV
5. VRKGGSLD
6. VTTKSAVA

1: no binding; 2: binds; 3: no binding; 4: no binding; 5: binds; 6: no binding
